MIC listing for selected molecules.
Tested on: Staphylococcus aureus
Assay: Antibacterial activity against hospital-associated methicillin-resistant Staphylococcus aureus isolate 412 by broth microdilution assay
Format: functional
Only the number, expressed in mg/L, is required.

INSERT INTO results (smiles_code, assay_system, value_type, result_number) VALUES
  ('CCCCCCCCCCNCCN[C@@]1(C)C[C@H](O[C@H]2[C@H](Oc3c4cc5cc3Oc3ccc(cc3Cl)[C@@H](O)[C@@H](NC(=O)[C@@H](CC(C)C)NC)C(=O)N[C@@H](CC(N)=O)C(=O)N[C@H]5C(=O)N[C@H]3C(=O)N[C@H](C(=O)N[C@H](C(=O)O)c5cc(O)c(CNCP(=O)(O)O)c(O)c5-c5cc3ccc5O)[C@H](O)c3ccc(c(Cl)c3)O4)O[C@H](CO)[C@@H](O)[C@@H]2O)O[C@@H](C)[C@H]1O', 'Staphylococcus aureus', 'MIC', 0.5);

Documented MIC of CCCCCCCCCC(=O)N[C@@H](Cc1c[nH]c2ccccc12)C(=O)N[C@H](CC(N)=O)C(=O)N[C@@H](CC(=O)O)C(=O)N[C@@H]1C(=O)NCC(=O)N[C@@H](CCCN)C(=O)N[C@@H](CC(=O)O)C(=O)N[C@H](C)C(=O)N[C@@H](CC(=O)O)C(=O)NCC(=O)N[C@H](CO)C(=O)N[C@@H]([C@H](C)CC(=O)O)C(=O)N[C@@H](CC(=O)c2ccccc2N)C(=O)O[C@@H]1C : 0.5

Documented MIC of CN(C)c1cc(NC(=O)CNC(C)(C)C)c(O)c2c1C[C@H]1C[C@H]3[C@H](N(C)C)C(O)=C(C(N)=O)C(=O)[C@@]3(O)C(O)=C1C2=O : 0.25

Reference for the values: ChEMBL document CHEMBL1687804
